List of Ki tested on UniProt:P0ABQ4.
Sequence (P0ABQ4 whole entry, looked up): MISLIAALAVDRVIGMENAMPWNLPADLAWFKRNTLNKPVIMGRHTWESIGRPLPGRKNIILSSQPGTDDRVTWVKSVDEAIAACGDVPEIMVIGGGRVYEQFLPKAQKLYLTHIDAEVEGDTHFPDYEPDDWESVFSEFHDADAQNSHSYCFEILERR
reported metric: Ki (nM)

# smiles record, measured
records = [
    ("CCCCCCCCCCCCOc1cccc(N2C(N)=NC(N)=NC2(C)C)c1", 1320),
    ("COc1cccc(OCc2cccc(N3C(N)=NC(N)=NC3(C)C)c2)c1", 955),
    ("CCCCCCCCCCCOc1cccc(N2C(N)=NC(N)=NC2(C)C)c1", 646),
    ("CC1(C)N=C(N)N=C(N)N1c1cccc(COc2cccc(CO)c2)c1", 646),
    ("Cc1cccc(OCc2cccc(N3C(N)=NC(N)=NC3(C)C)c2)c1", 537),
    ("CC(C)(C)c1cccc(OCc2cccc(N3C(N)=NC(N)=NC3(C)C)c2)c1", 871),
    ("CC1(C)N=C(N)N=C(N)N1c1cccc(COc2cccc(Cl)c2)c1", 977),
    ("CC1(C)N=C(N)N=C(N)N1c1cccc(COc2cccc(NC(N)=S)c2)c1", 676),
    ("CCc1cccc(OCc2cccc(N3C(N)=NC(N)=NC3(C)C)c2)c1", 1120),
    ("CC1(C)N=C(N)N=C(N)N1c1cccc(COc2cccc(C#N)c2)c1", 891),
    ("CC1(C)N=C(N)N=C(N)N1c1cccc(OCc2ccc(Cl)c(Cl)c2)c1", 708),
    ("CC1(C)N=C(N)N=C(N)N1c1cccc(COc2cccc(NC(N)=O)c2)c1", 1230),
    ("CCCCCCCCCCCCCCOc1cccc(N2C(N)=NC(N)=NC2(C)C)c1", 1410),
]
